Test system: Zymoseptoria tritici (SEPTTR-184)
Assay: Efficacy of target gene fragments (MgCytB dsRNA tiles) on wheat plants, SEPTTR-184
Format: in vivo
Design: scale not given here
Details: 3.125 ppm; 3DC (curative)
# key: entry, value: Average of 2 trials SEPTTR-184 3DC

| MOLECULE | READOUT KIND | MEAS VALUE |
| --- | --- | --- |
| MgCytB-T2: 203 bp dsRNA of Zymoseptoria CytB region 2, location 603-805 (SEQ ID NO:5) (nucleic acid, listed as Zymoseptoria tritici, complementary strand of dsRNA) ACACGATACAGCGGGTTCAGGAAATCCTTTAGGTGTATCAGGTAACTACGATAGATTACCATTCGCCCCTTACTTTATATTCAAAGATTTAATAACAATATTTTTATTCATTATAGTGTTATCAATATTTATTTTCTTTATGCCTAACGTTTTAGGTGACAGCGAGAATTATGTTATGGCTAACCCTATGCAAACTCCACCTG | Average of 2 trials SEPTTR-184 3DC | 77 |

Data point: MgCytB-T7: 221 bp dsRNA of Zymoseptoria CytB region T7, location 947-1167 (SEQ ID NO:10) (nucleic acid, listed as Zymoseptoria tritici, complementary strand of dsRNA) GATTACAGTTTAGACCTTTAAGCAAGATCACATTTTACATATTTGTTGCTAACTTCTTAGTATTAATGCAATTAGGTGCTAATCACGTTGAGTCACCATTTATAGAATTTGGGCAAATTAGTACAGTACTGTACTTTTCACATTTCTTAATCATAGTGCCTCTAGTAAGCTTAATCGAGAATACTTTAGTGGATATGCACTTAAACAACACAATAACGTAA ; Average of 2 trials SEPTTR-184 3DC = 76

Data point: MgCytB-T5: 172 bp dsRNA of Zymoseptoria CytB region T5, location 173-344 (SEQ ID NO:8) (nucleic acid, listed as Zymoseptoria tritici, complementary strand of dsRNA) TATCTGAAGCATTTAACTCAGTTGAACACATAATGAGAGATGTAAACAATGGATGACTTATACGTTATCTTCACTCTAATACTGCTTCAGCTTTCTTCTTTTTAGTTTACCTGCACGTGGGTAGAGGGTTATACTACGGGTCATACAAAGCCCCTAGAACATTAACATGAAC ; Average of 2 trials SEPTTR-184 3DC = 47

Data point: MgCytB-T3: 116 bp dsRNA of Zymoseptoria CytB region 3, location 279-394 (SEQ ID NO:6) (nucleic acid, listed as Zymoseptoria tritici, long dsRNA, chemistry not given here, further chemistry not given here) TTACCTGCACGTGGGTAGAGGGTTATACTACGGGTCATACAAAGCCCCTAGAACATTAACATGAACAATCGGTACTATAATACTAGTTCTGATGATGGCAACCGCATTCTTAGGGT ; Average of 2 trials SEPTTR-184 3DC = 84

Data point: MgCytB-T4: 219 bp dsRNA of Zymoseptoria CytB region T4, location 1-219 (SEQ ID NO:7) (nucleic acid, listed as Zymoseptoria tritici, complementary strand of dsRNA) ATGAGGATTTGGAAGAGTCACCCTTTATTTAGTCTGGTTAATGGTTATCTTATCGATTCACCACAACCAAGTAATCTAAGCTATCTATGAAATTTCGGTTCATTACTGGGATTTTGTCTTGTAATACAAATCGTTACTGGTGTTACACTTGCTATGCATTATAACCCTAGCGTATCTGAAGCATTTAACTCAGTTGAACACATAATGAGAGATGTAAAC ; Average of 2 trials SEPTTR-184 3DC = 76

Data point: MgCytB-T6: 258 bp dsRNA of Zymoseptoria CytB region T6, location 775-1032 (SEQ ID NO:9) (nucleic acid, listed as Zymoseptoria tritici, complementary strand of dsRNA) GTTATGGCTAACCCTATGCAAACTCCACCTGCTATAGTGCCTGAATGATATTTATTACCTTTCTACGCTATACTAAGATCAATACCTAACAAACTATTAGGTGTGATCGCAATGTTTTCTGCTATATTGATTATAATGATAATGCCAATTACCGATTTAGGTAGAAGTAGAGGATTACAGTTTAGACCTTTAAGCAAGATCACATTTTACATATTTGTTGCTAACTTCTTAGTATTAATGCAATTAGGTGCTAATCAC ; Average of 2 trials SEPTTR-184 3DC = 53

Data point: MgCytB-T1: 267 bp dsRNA of Zymoseptoria CytB region 1, location 364-630 (SEQ ID NO:4) (nucleic acid, listed as Zymoseptoria tritici, complementary strand of dsRNA) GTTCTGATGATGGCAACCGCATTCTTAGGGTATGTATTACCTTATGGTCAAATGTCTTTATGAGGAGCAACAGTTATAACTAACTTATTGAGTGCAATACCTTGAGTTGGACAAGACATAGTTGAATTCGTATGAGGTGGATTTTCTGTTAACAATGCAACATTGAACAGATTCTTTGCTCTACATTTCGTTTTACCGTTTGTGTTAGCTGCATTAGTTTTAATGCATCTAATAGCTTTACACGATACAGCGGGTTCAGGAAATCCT ; Average of 2 trials SEPTTR-184 3DC = 77
